# test: Metabolic stability in mouse liver S9 fraction assessed as intrinsic clearance at 2 uM measured for 90 mins by LC-MS/MS analysis
# Type: ADME, subcellular
# setup.conditions: read-out: CLH
measured.property: microsomal CLint at 2 µM
Please answer using the number first and the unit second.

*Q* Supply recorded microsomal CLint at 2 µM for "O=C(Cn1cc(CN2CCN(c3ccnc4cc(Cl)ccc34)CC2)nn1)Nc1cccc([N+](=O)[O-])c1" here.
*A* 7.78 µL/min/mg

----------
# System: Plasmodium falciparum
# test: Antimalarial activity against ring stage chloroquine-sensitive Plasmodium falciparum 3D7 assessed as growth inhibition incubated for 72 hrs by SYBR Green dye based analysis
# Format: functional, organism-based
# setup.conditions: 3D7, 72 h
measured.property: IC50 (nM)
Express it in nM; write the number only.

*Q* Supply recorded IC50 for "O=C(Cn1cc(CN2CCN(c3ccnc4cc(Cl)ccc34)CC2)nn1)Nc1cccc([N+](=O)[O-])c1" here.
*A* 960
